TARGET OR TEST SYSTEM: Sodium-dependent serotonin transporter (Homo sapiens)
Sequence (P31645 whole entry): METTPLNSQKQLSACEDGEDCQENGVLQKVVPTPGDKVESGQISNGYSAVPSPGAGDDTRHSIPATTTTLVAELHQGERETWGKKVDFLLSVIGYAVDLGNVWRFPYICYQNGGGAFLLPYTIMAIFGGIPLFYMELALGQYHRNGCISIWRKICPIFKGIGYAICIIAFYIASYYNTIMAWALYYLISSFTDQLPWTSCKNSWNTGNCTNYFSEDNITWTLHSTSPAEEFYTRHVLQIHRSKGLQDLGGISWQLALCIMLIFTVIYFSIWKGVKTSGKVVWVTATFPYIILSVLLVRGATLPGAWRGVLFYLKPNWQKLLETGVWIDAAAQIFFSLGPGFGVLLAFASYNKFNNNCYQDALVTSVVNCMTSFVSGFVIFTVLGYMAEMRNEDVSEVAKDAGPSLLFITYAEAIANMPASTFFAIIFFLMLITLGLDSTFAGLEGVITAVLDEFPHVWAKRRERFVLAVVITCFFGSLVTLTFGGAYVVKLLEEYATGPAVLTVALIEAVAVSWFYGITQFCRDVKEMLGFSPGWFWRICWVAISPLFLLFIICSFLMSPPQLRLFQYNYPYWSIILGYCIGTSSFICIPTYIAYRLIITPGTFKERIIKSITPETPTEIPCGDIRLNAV
RESULT TYPE: Ki (µM)
Respond with the bare value in µM.

Take a look at these entries with their results.
CNC(C)C(=O)c1ccccc1 (stereo not drawn); 1.77
CN[C@@H](C)Cc1ccccc1 [METHAMPHETAMINE (+)]; 0.736

Now let's try a different one.
Record lookup: for Sodium-dependent serotonin transporter (Homo sapiens), what Ki belongs to CC(N)C(=O)c1ccccc1 (stereo not drawn) ? 2.37

----------
Below are molecules with their pKi as measured on Sodium-dependent noradrenaline transporter (Homo sapiens, UniProt P23975).
Sequence (P23975 whole entry): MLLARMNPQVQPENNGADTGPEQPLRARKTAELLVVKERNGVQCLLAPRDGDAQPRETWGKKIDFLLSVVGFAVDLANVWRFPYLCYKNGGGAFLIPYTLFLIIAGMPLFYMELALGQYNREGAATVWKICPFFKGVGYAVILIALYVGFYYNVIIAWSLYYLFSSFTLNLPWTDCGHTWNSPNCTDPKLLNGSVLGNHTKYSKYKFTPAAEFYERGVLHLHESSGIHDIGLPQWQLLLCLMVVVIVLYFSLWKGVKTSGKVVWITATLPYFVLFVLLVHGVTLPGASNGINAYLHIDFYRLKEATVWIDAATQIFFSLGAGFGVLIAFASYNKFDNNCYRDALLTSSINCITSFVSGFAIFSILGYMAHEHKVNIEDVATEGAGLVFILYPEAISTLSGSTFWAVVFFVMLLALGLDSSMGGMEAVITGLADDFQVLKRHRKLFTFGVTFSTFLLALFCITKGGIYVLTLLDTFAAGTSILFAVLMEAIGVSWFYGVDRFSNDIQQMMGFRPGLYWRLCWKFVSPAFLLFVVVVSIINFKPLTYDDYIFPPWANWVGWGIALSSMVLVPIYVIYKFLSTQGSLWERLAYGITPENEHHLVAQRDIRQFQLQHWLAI
For clarity, pKi is expressed as the negative log10 of concentration in mol/L.

Look up pKi: CN[C@@H](C)Cc1ccccc1 [METHAMPHETAMINE (+)] 7.91

# repeat for CC(N)C(=O)c1ccccc1 (stereo not drawn) 7.91

# repeat for CNC(C)C(=O)c1ccccc1 (stereo not drawn) 7.88

----------
TARGET OR TEST SYSTEM: Alpha-2C adrenergic receptor (Homo sapiens)
Sequence (P18825 whole entry): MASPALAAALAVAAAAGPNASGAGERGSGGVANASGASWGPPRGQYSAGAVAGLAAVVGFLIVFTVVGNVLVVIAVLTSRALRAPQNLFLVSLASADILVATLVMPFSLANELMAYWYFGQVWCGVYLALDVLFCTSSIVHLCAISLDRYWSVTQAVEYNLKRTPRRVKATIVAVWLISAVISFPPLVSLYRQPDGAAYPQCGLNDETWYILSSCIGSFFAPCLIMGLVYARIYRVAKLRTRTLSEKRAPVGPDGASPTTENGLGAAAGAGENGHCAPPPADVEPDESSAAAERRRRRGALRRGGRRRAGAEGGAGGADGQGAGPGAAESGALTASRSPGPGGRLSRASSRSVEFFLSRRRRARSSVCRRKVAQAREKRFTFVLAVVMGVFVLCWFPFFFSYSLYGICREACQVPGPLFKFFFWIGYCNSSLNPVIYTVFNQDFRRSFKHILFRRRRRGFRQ
RESULT TYPE: pKi
For clarity, pKi is expressed as the negative log10 of concentration in mol/L.

CC(N)C(=O)c1ccccc1 (configuration not stated) [CAS_62258]; 6.12

Now let's try a different one.
Look up pKi: CNC(C)C(=O)c1ccccc1 (configuration not stated) [NSC_1576] 6.22

----------
TARGET OR TEST SYSTEM: Alpha-2A adrenergic receptor (Homo sapiens, UniProt P08913)
Sequence (P08913 whole entry): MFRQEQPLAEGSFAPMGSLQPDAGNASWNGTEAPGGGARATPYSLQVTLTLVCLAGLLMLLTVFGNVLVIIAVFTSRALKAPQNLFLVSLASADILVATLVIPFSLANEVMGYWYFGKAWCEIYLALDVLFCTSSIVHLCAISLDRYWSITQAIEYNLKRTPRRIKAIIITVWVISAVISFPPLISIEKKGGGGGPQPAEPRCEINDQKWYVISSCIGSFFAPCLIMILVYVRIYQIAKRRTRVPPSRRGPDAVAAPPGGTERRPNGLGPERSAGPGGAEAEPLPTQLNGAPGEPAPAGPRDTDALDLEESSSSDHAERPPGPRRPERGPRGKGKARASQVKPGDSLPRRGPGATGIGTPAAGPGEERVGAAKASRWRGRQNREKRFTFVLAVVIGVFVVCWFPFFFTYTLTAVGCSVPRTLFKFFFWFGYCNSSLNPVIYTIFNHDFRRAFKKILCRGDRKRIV
RESULT TYPE: pKi
For clarity, pKi is expressed as the negative log10 of concentration in mol/L.

Take a look at these entries with their results.
CNC(C)C(=O)c1ccccc1 (stereo not drawn) [NSC_1576]; 5.04
CNC(C)C(O)c1ccccc1 (stereo not drawn) [CAS_24221-86-1]; 5.70

Look up pKi: CC(N)C(=O)c1ccccc1 (stereo not drawn) [CAS_62258] 5.17
